Target: T1, human HER1 (human, UniProt P00533 25-1210)
T1 construct: also called EGFR; ErbB1
Assay: FACS CHO-HER1, 667 nM
endpoint: MCF

>>> value("18G11 (VHH, c-myc, His6-tagged form as expressed; also called HER3MS18G11; HER3MS018G11) VHH: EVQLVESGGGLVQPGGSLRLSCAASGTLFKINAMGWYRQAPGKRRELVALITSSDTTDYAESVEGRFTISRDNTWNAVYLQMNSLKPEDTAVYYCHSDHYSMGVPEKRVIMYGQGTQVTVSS")
87
>>> value("21B02 (VHH) VHH: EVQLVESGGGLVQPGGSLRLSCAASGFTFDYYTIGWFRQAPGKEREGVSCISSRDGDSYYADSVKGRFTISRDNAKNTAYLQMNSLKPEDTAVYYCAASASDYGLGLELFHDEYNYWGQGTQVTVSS")
64
>>> value("04C07 (VHH, also called HER3MS04C07; HER3MS004C07) VHH: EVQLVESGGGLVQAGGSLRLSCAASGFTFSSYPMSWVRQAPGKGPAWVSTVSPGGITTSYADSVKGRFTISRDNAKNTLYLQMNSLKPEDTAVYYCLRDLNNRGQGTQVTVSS")
92
>>> value("18F05 (VHH, also called 18F5) VHH: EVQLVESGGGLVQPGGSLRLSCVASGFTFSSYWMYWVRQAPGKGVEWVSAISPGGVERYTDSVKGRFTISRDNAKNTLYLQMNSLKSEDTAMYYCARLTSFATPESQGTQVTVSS")
60
